target: NADPH oxidase 2 (Homo sapiens); experiment: compounds shifting NOX2 Amplex Red fluorescence – cell-based, HEK293-NOX2, PMA-stimulated, NOX inhibitor project, primary screen (AID 1159); details: 45 min, higher = more signal, called active from +8 up or from −8 down; also: test concentration not given here
measured endpoint: z-score
Answers are plain numbers.

O=C1OCC=C[C@H]2OC34C=CCN(CCN5CCOCC5)C(=O)[C@H]3N(CCO)C(=O)[C@@H]4[C@@H]12 (some centres not stated) = 1.4
CC(C)CCC[C@@H](C)[C@H]1CC[C@@]2(C)C3=C(CC[C@]12C)[C@@]1(C)CC[C@H](OC(=O)c2ccc(C(F)(F)F)nc2)C(C)(C)C1CC3 (some centres not stated) = -0.971
O=C1C2C=CC(C(O)COCc3ccccc3)N(Nc3ccc([N+](=O)[O-])cc3)C2C(=O)N1c1ccccc1 (configuration not stated) = -0.51

Give z-score for each listed item.
1. COc1ccc(CCNC(=O)[C@@]2(C)c3ccccc3C(=O)N(c3ccc(C)cn3)[C@H]2c2ccc(CO)cc2)cc1
2. NC(=O)[C@@]1(Cc2ccccc2)N=C(c2ccc(OCCCO)cc2)O[C@H]1c1ccccc1

Out:
1. -0.911
2. -0.281

Give z-score for each listed item.
1. CCN(CC)c1ccc(N2CC=CC34O[C@@H]5/C=C\CCC(C)OC(=O)C5[C@H]3C(=O)N(CCCCCO)[C@@H]4C2=O)cc1 (some centres not stated)
2. O=C(NCc1ccccc1)[C@@H]1c2ccccc2C(=O)N(C2Cc3ccccc3C2)[C@H]1c1ccc(CO)cc1

Out:
[-0.0453, -0.0422]

---

molecular target: NADPH oxidase 5 (Homo sapiens); assay: compounds shifting NOX5 Amplex Red fluorescence – cell-based, HEK293-NOX5, NOX inhibitor project, primary screen (AID 1161); details: HEK293-NOX5, ionomycin, 45 min, higher = more signal
measured endpoint: z-score

C=CCC(OC(C)=O)[C@@H]1[C@@H](N(Cc2ccc(-c3cccc(C(F)(F)F)c3)o2)C(=O)c2cccc3ccccc23)c2cc(OCCCO)ccc2N1C(=O)Cc1ccc2ccccc2c1 (stereo partly specified) = -1.04
COCCCNC(=O)[C@@]1(Cc2ccccc2CN=[N+]=[N-])N=C(c2ccc(OCCCO)cc2)O[C@H]1c1ccccc1CN=[N+]=[N-] = -1.91
O=C(CS)NCCCCCNC(=O)[C@H]1C[C@H]2C(=O)NCC(=O)N2[C@H]1c1ccc(O)cc1 = 1.16
CCOC(=O)C[C@H]1[C@H](OC(=O)c2ccc(C(=O)c3ccccc3)cc2)[C@@H](NC(=O)Cc2ccc(OC)cc2)c2cc(OCCCO)ccc2N1C(=O)c1ccc2ccccc2n1 = 1.53
O=C(O)[C@H](Cc1ccccc1)n1cc(-c2ccccc2)nn1 = -0.837

Give z-score for each listed item.
1. O=C(O)[C@H]1C[C@H]2C(=O)N3CCC[C@H]3C(=O)N2[C@H]1c1ccc(O)cc1
2. Cc1ccc(C2C3C(=O)CC4C(=O)N(c5ccccc5)C(=O)C4C3CN2S(=O)(=O)c2ccc(C)cc2)cc1 (stereo unspecified)
3. CCCCN1CC=CC23O[C@@H]4/C=C\CCCOC(=O)C4[C@H]2C(=O)N(CCCCCO)[C@@H]3C1=O (stereo partly specified)
4. COc1ccc(-c2cc3c(c(Cc4ccccc4)n2)[Si](C(C)C)(C(C)C)OC3)cn1
5. CN1C(=O)C2C=CC(C(O)C=Cc3ccc([N+](=O)[O-])cc3)N(Nc3ccccc3)C2C1=O (stereo unspecified)

Out:
0.932
-0.9
1.74
-2.02
-2.44

Entry source: PubChem BioAssay
